These entries and their values trace back to ChEMBL document CHEMBL6182891.

System: Aorta
Method description: Vasorelaxant activity in endothelium-intact thoracic aortic rings of albino adult male Wistar rat assessed as reduction in epinephrine-induced contracture at 0.05 to 0.2 mg/ml relative to control
Format: functional
Recorded conditions: dose 0.05-0.2 mg/ml
# strict inequality: Emax < 50% yields class 1, everything else yields class 0

Known results for molecules:
- Molecule: "Cc1ccc(NC(=O)Cn2cc(COC(Cn3cnc4ccccc4c3=O)c3ccccc3)nn2)cc1 (configuration not stated)"
  Qualitative label: "class 1"
- Molecule: "O=C(Cn1cc(COC(Cn2cnc3ccccc3c2=O)c2ccccc2)nn1)Nc1ccccc1 (configuration not stated)"
  Qualitative label: "class 1"
- Molecule: "O=C(Cn1cc(COC(Cn2cnc3ccccc3c2=O)c2ccccc2)nn1)Nc1ccc(F)cc1 (configuration not stated)"
  Qualitative label: "class 1"
- Molecule: "COc1ccc(CCN(C)CCCC(C#N)(c2ccc(OC)c(OC)c2)C(C)C)cc1OC (configuration not stated) [VERAPAMIL]"
  Qualitative label: "class 0"

Query :: Dear reviewer, please state whether O=C(Cn1cc(COC(Cn2cnc3ccccc3c2=O)c2ccccc2)nn1)Nc1ccc(Cl)cc1 (configuration not stated) has Emax strictly beneath 50%.
Result :: class 0

Query :: Strictly below 50% in Emax? Cc1ccccc1NC(=O)Cn1cc(COC(Cn2cnc3ccccc3c2=O)c2ccccc2)nn1 (configuration not stated)
Result :: class 0
